- testDetails: Times to onset, minimal and maximal, observed in the indexed observations. [column 'DELAI' in source]
- conditionSummary: human
propertyMeasured: Hepatotoxicity (time to onset)

Consider the worked cases shown below.
NCC1(CC(=O)O)CCCCC1 [GABAPENTIN]	9 days - 4 months
C1CCC(C(CC2CCCCN2)C2CCCCC2)CC1 (stereo not drawn) [PERHEXILINE]	3 weeks - 12 years

Could you tell me which Hepatotoxicity (time to onset) is on file for Cc1ccc(O)c([C@H](CCN(C(C)C)C(C)C)c2ccccc2)c1 [TOLTERODINE] ?
18 days

Could you tell me which Hepatotoxicity (time to onset) is on file for Cc1ccc(C)c(OCCCC(C)(C)C(=O)O)c1 [GEMFIBROZIL] ?
9 days - 12 days

Could you tell me which Hepatotoxicity (time to onset) is on file for Cc1ncc(C[n+]2csc(CCO)c2C)c(N)n1 [THIAMINE ION] ?
2 years

Could you tell me which Hepatotoxicity (time to onset) is on file for N=C(N)NC(=O)c1nc(Cl)c(N)nc1N [AMILORIDE] ?
2 weeks - 6 months

Could you tell me which Hepatotoxicity (time to onset) is on file for CCC(=O)O[C@@H]1CC(=O)O[C@H](C)C/C=C/C=C/[C@H](O)[C@H](C)C[C@H](CC=O)[C@H](O[C@@H]2O[C@H](C)[C@@H](O[C@H]3C[C@@](C)(O)[C@@H](OC(=O)CC)[C@H](C)O3)[C@H](N(C)C)[C@H]2O)[C@H]1OC [MIDECAMYCIN] ?
1 days

Could you tell me which Hepatotoxicity (time to onset) is on file for Cc1c(C)c2c(c(C)c1O)CC[C@@](C)(CCC[C@H](C)CCC[C@H](C)CCCC(C)C)O2 [ALPHA-TOCOPHEROL] ?
1 week - 2 months

###

- conditionSummary: human, serum, 4383 h
Here the recorded Hepatotoxicity (chronic liver disease) is given for each entry.
Field format: numeric only.

Consider the worked cases shown below.
CC[C@H]1OC(=O)[C@H](C)C(=O)[C@H](C)[C@@H](O[C@@H]2O[C@H](C)C[C@H](N(C)C)[C@H]2O)[C@](C)(OC)C[C@@H](C)C(=O)[C@H](C)[C@H]2N(CCCCn3cnc(-c4cccnc4)c3)C(=O)O[C@]12C	0
O[C@H]1[C@H]2[C@H](O)CCCN2C[C@H]1O	0

Would you kindly look at the next entry?
Could you tell me which Hepatotoxicity (chronic liver disease) is on file for CN1C[C@H](C(=O)N[C@]2(C)O[C@@]3(O)[C@@H]4CCCN4C(=O)[C@H](Cc4ccccc4)N3C2=O)C=C2c3cccc4[nH]cc(c34)C[C@H]21 ?
0

###

- testDetails: Highest frequency of acute liver toxicity observed during clinical trials, expressed as a percentage. [column '% AIGUE' in source]
- conditionSummary: human, Liver
Assign 1 whenever Hepatotoxicity (acute) does not fall below 0.2%; assign 0 whenever it does.

CO[C@@]1(NC(=O)CSC[C@@H](N)C(=O)O)C(=O)N2C(C(=O)O)=C(CSc3nnnn3C)CS[C@@H]21	0

Check the entry O=C(O)c1cc(-c2ccc(F)cc2F)ccc1O : does Hepatotoxicity (acute) equal or exceed 0.2%?
0

Check the entry C[C@H](CS)C(=O)N1CCC[C@H]1C(=O)O : does Hepatotoxicity (acute) equal or exceed 0.2%?
0

Check the entry OCCOCCN1CCN(C2=Nc3ccccc3Sc3ccccc32)CC1 : does Hepatotoxicity (acute) equal or exceed 0.2%?
1

Check the entry O=C(O)c1ccccc1O.O=C(O)c1ccccc1O.O=C(O)c1ccccc1O : does Hepatotoxicity (acute) equal or exceed 0.2%?
0

Check the entry CCc1cc(C(N)=S)ccn1 [ETHIONAMIDE] : does Hepatotoxicity (acute) equal or exceed 0.2%?
1
